Target: squalene synthase (Rattus norvegicus, UniProt Q02769)
Construct: from tissue; host or cells: rat liver homogenate
Sequence (Q02769 whole entry): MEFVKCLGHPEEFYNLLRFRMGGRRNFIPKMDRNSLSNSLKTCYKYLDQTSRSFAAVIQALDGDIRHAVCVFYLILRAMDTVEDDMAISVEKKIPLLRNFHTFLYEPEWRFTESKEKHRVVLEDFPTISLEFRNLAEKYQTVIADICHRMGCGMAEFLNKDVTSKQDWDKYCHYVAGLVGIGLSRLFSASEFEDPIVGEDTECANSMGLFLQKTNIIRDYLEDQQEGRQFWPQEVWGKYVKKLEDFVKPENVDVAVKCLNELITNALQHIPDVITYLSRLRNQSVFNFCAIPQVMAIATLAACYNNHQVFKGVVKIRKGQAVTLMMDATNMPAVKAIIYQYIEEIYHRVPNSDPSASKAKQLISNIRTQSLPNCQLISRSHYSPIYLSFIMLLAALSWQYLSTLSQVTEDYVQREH
Experiment: Inhibition of squalene synthase ([14C]squalene production from [2-14C]farnesylpyrophosphate)
Format: biochemical
Procedure: A. Biller et al. in J. […] [¹⁴C]squalene is separated from unreacted substrate on thin layer chromatography plates and determined by liquid scintillation counting. […] Squalene was separated from unreacted substrate on thin layer chromatography plates and determined by liquid scintillation counting. Inhibition of squalene synthase was quantified by incubating rat liver homogenate with various concentrations of the test compound in the presence of [2-¹⁴C] farnesylpyrophosphate. […]
pIC50: −log10 of the molar value.
MEASURED_ENDPOINT: pIC50

For orientation, consider the following solved cases.
C=C(CCC12OC(C(=O)O)C(OC(C)=O)(C(=O)O)C(C(=O)O)(O1)C(OC(=O)C=CC(C)CC(C)CC)C2OC(C)=O)C(OC(C)=O)C(C)Cc1ccccc1 (stereo not drawn) [Example 25] = > 7.00
CC[C@H](C)C[C@H](C)/C=C/C(=O)O[C@@H]1[C@@H](O)[C@@]2(C/C=C(\C)C[C@H](C)Cc3ccccc3)O[C@H](C(=O)O)[C@@](O)(C(=O)O)[C@]1(C(=O)O)O2 (relative stereo) [Example 9] = > 7.00

[Q] Please tell me: pIC50 of C=C(CC[C@]12O[C@H](C(=O)O)[C@@](O)(C(=O)O)[C@](C(=O)O)(O1)[C@H](OC(=O)NCC)[C@H]2O)[C@@H](OC(C)=O)[C@H](C)Cc1ccccc1 (relative stereo) [Example 66] , system squalene synthase (Rattus norvegicus, UniProt Q02769)?
[A] > 7.00
